experiment: Growth inhibition of human HL60 cells at 50 uM after 72 hrs by MTT assay; assay type: functional; settings: HL-60, 72 h, read-out: GI
Listing: inhibition of growth at 50 µM of selected molecules
// note: answer is a bare numeric in %

>>> print(df.to_string())
               molecule  valuereported
0  C#CCOc1ccc(CC=C)cc1O           34.2

Item "C=CCc1cc(O)c(O)c(CN2CCN(c3ccc(C(C)=O)cc3)CC2)c1" has what recorded inhibition of growth at 50 µM?
89.2

Repeat for the following molecule: "C=CCc1cc(O)c(O)c(CN2CCOCC2)c1"
90.5

Cool, now "C=CCc1cc(O)c(O)c(CN2CCN(c3ccccc3O)CC2)c1"
93.5

Check "C=CCc1cc(O)c(O)c(CN2CCC(C)CC2)c1" too.
91.8

Likewise for "C=CCc1cc(O)c(O)c(CN2CCN(C)CC2)c1" ?
53.4

And C=CCc1ccc(O)c(O)c1 [HYDROXYCHAVICOL] ?
92.4

Queued: "C=CCc1ccc(OCc2cn(-c3cccc([N+](=O)[O-])c3)nn2)c(O)c1"
65.5

Request: "C=CCc1cc(O)c(O)c(CN2CCC(Cc3ccccc3)CC2)c1"
94.4

Item: "C=CCc1cc(O)c(O)c(CN2CCC(CO)CC2)c1"
43.3

And then "C=CCc1cc(O)c(O)c(CN2CCNCC2)c1" , what is it?
94.4

Lookup "C=CCc1ccc(OCc2cn(-c3cc(OC)c(OC)c(OC)c3)nn2)c(O)c1"
41.4

And for "C=CCc1ccc(OCc2cn(-c3ccc(C#N)cc3)nn2)c(O)c1" ?
31.8

Also check "C=CCc1ccc(OCc2cn(-c3ccccc3CO)nn2)c(O)c1"
47.1

Entry "C=CCc1ccc(OCc2cn(-c3cccc(C#N)c3)nn2)c(O)c1" please
30.9

// repeat for "C=CCc1cc(O)c(O)c(CN2CCC(CCO)CC2)c1" and report
52.1

Try the molecule "C=CCc1ccc(OCc2cn(-c3ccccc3Cl)nn2)c(O)c1"
43.2

Another molecule: "C=CCc1ccc(OCc2cn(-c3ccc(Br)cc3)nn2)c(O)c1"
25.6

Can you handle "C=CCc1ccc(OCc2cn(-c3ccc(C(=O)c4ccccc4)cc3)nn2)c(O)c1" next?
40.5

Another molecule to check: "C=CCc1ccc(OCc2cn(-c3ccc(OC)cc3)nn2)c(O)c1"
38.9

---

assay: Growth inhibition of human MIAPaCa2 cells at 50 uM after 72 hrs by MTT assay; type: functional; details: MIA PaCa-2, 72 h, read-out: GI
reportedMetric: inhibition of growth at 50 µM (%)
Give just the number in %; leave the unit off.

Completed entries (count: 3):
In [3]: df
Out[3]:
                                   molecule  valuereported
0  C=CCc1ccc(OCc2cn(-c3ccc(OC)cc3)nn2)c(O)c1           88.2
1             C=CCc1cc(O)c(O)c(CN2CCOCC2)c1           67.5
2  C=CCc1cc(O)c(O)c(CN2CCN(c3ccc(C(C)=O)cc3)CC2)c1           75.1

State the recorded inhibition of growth at 50 µM for this entry: "C=CCc1cc(O)c(O)c(CN2CCC(CCO)CC2)c1"
71.8
